- subject of test: GPR73 (prokineticin 1 receptor) (Homo sapiens, UniProt Q8TCW9)
- Construct: expressed in transfected cells; host or cells: HEK 293
- Sequence (Q8TCW9 whole entry, species assumed): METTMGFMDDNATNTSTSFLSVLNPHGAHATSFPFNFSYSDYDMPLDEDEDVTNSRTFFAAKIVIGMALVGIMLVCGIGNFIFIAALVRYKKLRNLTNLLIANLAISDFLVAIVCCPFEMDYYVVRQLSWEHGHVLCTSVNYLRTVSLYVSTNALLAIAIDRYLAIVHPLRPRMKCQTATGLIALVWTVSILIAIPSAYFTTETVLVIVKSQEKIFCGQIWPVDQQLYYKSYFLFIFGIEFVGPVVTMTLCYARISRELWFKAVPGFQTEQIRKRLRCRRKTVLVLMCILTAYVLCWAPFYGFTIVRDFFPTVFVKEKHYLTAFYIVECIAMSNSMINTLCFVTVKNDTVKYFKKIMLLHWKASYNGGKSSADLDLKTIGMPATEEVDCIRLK
- test: PK1 functional assay: Ca2+ mobilization screening for PK1 antagonists on the FLIPR
- Format: cell-based
- applied conditions: HEK293, 10 μM compound; HEK 293 GPR73 cells; multiple values = multiple testing; read-out: Ca^2+ Mobilization % Inh @ 10 μM
property label: inhibition at 10 µM (%)
Report the figure in % without appending any unit label.

Give its inhibition at 10 µM value. Item: COCCNc1ncccc1CNc1nc(=O)n(CCc2ccccc2)c(=O)n1Cc1ccc(OC)cc1
38

Please look up its inhibition at 10 µM: COCCCCCn1c(NCc2cccnc2N)nc(=O)n(Cc2ccc(OC(F)F)cc2)c1=O
76

What inhibition at 10 µM value was documented for this compound, COc1ccc(Cn2c(=O)nc(NCc3cnc(C)cc3C)n(Cc3cccc4cc[nH]c34)c2=O)cc1 ?
88

For the compound Cc1cc(C)[n+]([O-])c(N)c1CNc1nc(=O)n(Cc2ccc3c(c2)CCO3)c(=O)n1Cc1ccc2c(c1)CCO2 , what inhibition at 10 µM is on record?
85

Report inhibition at 10 µM for COc1ccc(Cn2c(=O)nc(NCc3cccnc3N)n(Cc3ccc(O)cc3)c2=O)cc1 please.
95

What does the record list as inhibition at 10 µM for COc1ccc(Cn2c(=O)nc(NCc3cccnc3N)n(Cc3ccc(NC(C)=O)cc3)c2=O)cc1 ?
86

Which inhibition at 10 µM value belongs to COc1ccc(Cn2c(=O)nc(NCc3cnc(C)cc3C)n(Cc3ccc(OC)nc3)c2=O)cc1 ?
96

###

- subject of test: GPR73 (prokineticin 1 receptor) (Homo sapiens)
- test: PK1 functional assay: Ca2+ mobilization screening for PK1 antagonists on the FLIPR
- applied conditions: HEK 293 GPR73 cells; PK1 ligand preparation at its EC50; multiple values = multiple testing; read-out: Ca^2+ Mobilization IC50
property label: IC50

Recall the recorded IC50 for Cc1cc(C)c(CNc2nc(=O)n(Cc3ccc(C(F)(F)F)cc3)c(=O)n2Cc2ccc(OC(F)F)cc2)cn1 with GPR73 (prokineticin 1 receptor) (Homo sapiens) and state it.
> 10 µM

Lab note: need IC50 with GPR73 (prokineticin 1 receptor) (Homo sapiens) for entry COc1ccc(Cn2c(NCc3cnc(C)cc3C)nc(=O)n(Cc3ccc4[nH]ccc4c3)c2=O)cc1 , please look it up.
> 10 µM

Entry Cc1cc(-c2ccc(F)cc2)nc(N)c1CNc1nc(=O)n(Cc2ccc3c(c2)CCO3)c(=O)n1Cc1ccc(OC(F)F)cc1 , system GPR73 (prokineticin 1 receptor) (Homo sapiens): what IC50 was measured?
> 10 µM

###

- subject of test: GPR73 (prokineticin 1 receptor) (Homo sapiens, UniProt Q8TCW9)
- Construct: expressed in transfected cells; host or cells: HEK 293
- test: PK1 functional assay: Ca2+ mobilization screening for PK1 antagonists on the FLIPR
- Type: cell-based
- applied conditions: HEK293, 10 μM compound; HEK 293 GPR73 cells; multiple values = multiple testing; read-out: Ca^2+ Mobilization % Inh @ 10 μM
So I've got a bunch of compounds here, and I need their inhibition at 10 µM values.
Kindly answer with a numeric value in %, unit omitted.

Need inhibition at 10 µM, item COc1ccc(CCn2c(NCc3cccnc3N)nc(=O)n(Cc3ccc(OC)cc3)c2=O)cc1
91

Tell me the measured inhibition at 10 µM of CCOc1ccc(Cn2c(=O)nc(NCc3cnc(C)cc3C)n(Cc3ccc(OC)cc3)c2=O)cc1 , please.
89

Quick one: inhibition at 10 µM for COc1ccc(Cn2c(=O)nc(NCc3cnc(C)cc3C)n(Cc3ccc(N4C(=O)c5ccccc5C4=O)cc3)c2=O)cc1 ?
91

Find the recorded inhibition at 10 µM belonging to COc1ccc(Cn2c(=O)nc(NCc3cnc(C)cc3C)n(Cc3ccc(OC)c([N+](=O)[O-])c3)c2=O)cc1 and report it.
92

###

- subject of test: GPR73 (prokineticin 1 receptor) (Homo sapiens, UniProt Q8TCW9)
- Construct: expressed in transfected cells; host or cells: HEK 293
- test: PK1 functional assay: Ca2+ mobilization screening for PK1 antagonists on the FLIPR
- Assay type: cell-based
- applied conditions: HEK293, 10 μM compound; HEK 293 GPR73 cells; multiple values = multiple testing; read-out: Ca^2+ Mobilization % Inh @ 10 μM
Each entry gets Not fulfilled if its inhibition at 10 µM stays under 90%, and Fulfilled if its inhibition at 10 µM is 90% or above.

For this molecule, is measured inhibition at 10 µM 90% or higher? COc1ccc(Cn2c(=O)nc(NCc3cnc(C)cc3C)n(Cc3ccc(F)cc3)c2=O)cc1
Fulfilled

Threshold query (inhibition at 10 µM >= 90%) on COc1ccc(Cn2c(NCc3cccc(C(F)(F)F)n3)nc(=O)n(Cc3ccc(OC)cc3)c2=O)cc1
Not fulfilled

API: above_or_equal(metric=inhibition at 10 µM, cutoff=90%) for item COc1ccc(Cn2c(=O)nc(NCc3cccnc3N)n(Cc3ccc(Cl)c(Cl)c3)c2=O)cc1
Not fulfilled

###

- subject of test: GPR73 (prokineticin 1 receptor) (Homo sapiens)
- test: PK1 functional assay: Ca2+ mobilization screening for PK1 antagonists on the FLIPR
- applied conditions: HEK 293 GPR73 cells; PK1 ligand preparation at its EC50; multiple values = multiple testing; read-out: Ca^2+ Mobilization IC50
property label: IC50 (nM)
Just the number in nM, nothing appended.

Value lookup for IC50; key = COc1ccc(Cn2c(=O)nc(NCc3cnc(C)cc3C)n(Cc3ccc(OC)nc3)c2=O)cc1
193

Reported IC50 for COc1ccc(Cn2c(NCc3ccc4c(n3)NCCC4)nc(=O)n(Cc3ccc(F)cc3)c2=O)cc1 : what is it?
656

Which measured IC50 value corresponds to COc1ccc(Cn2c(NCc3cccnc3NCCO)nc(=O)n(Cc3ccc(F)cc3)c2=O)cc1 ?
110

Item COc1ccc(Cn2c(=O)nc(NCc3cnc(C)cc3C)n(Cc3ccc4sccc4c3)c2=O)cc1 has what recorded IC50?
387

For the compound shown here, CNc1ncccc1CNc1nc(=O)n(Cc2ccc(F)cc2)c(=O)n1Cc1ccc(OC)cc1 , give the reported IC50.
793

Could you tell me which IC50 is on file for CCCCCCn1c(NCc2cccnc2N)nc(=O)n(Cc2ccc(OC)cc2)c1=O ?
679

###

- subject of test: GPR73 (prokineticin 1 receptor) (Homo sapiens, UniProt Q8TCW9)
- test: PK1 functional assay: Ca2+ mobilization screening for PK1 antagonists on the FLIPR
- applied conditions: HEK 293 GPR73 cells; PK1 ligand preparation at its EC50; multiple values = multiple testing; read-out: Ca^2+ Mobilization IC50
property label: IC50 (nM)
Numbers only here, please. The scale is nM.

Look at this compound and give its reported IC50. COCCNc1ncccc1CNc1nc(=O)n(CCOc2ccccc2)c(=O)n1Cc1ccc(OC)cc1 [Cpd 72]
1170

What measured IC50 goes with COCCCCCn1c(=O)nc(NCc2cnc(C)cc2C)n(Cc2ccc(OC(F)F)cc2)c1=O [Cpd 198] ?
1040

State the recorded IC50 for this entry: COc1ccc(Cn2c(NCc3cnc(C)cc3C)nc(=O)n(Cc3ccc4c(c3)OCCO4)c2=O)cc1 [Cpd 209]
7730

// query IC50 value for entry COc1ccc(Cn2c(NCc3ccncc3)nc(=O)n(Cc3ccc(OC)cc3)c2=O)cc1 [Cpd 41]
1060

Given COc1ccc(Cn2c(NCc3cccnc3N3CCOCC3)nc(=O)n(Cc3ccc(F)cc3)c2=O)cc1 [Cpd 17] , state its recorded IC50.
2430

IC50 for Cc1cc(C)[n+]([O-])c(N)c1CNc1nc(=O)n(Cc2ccc3c(c2)CCO3)c(=O)n1Cc1ccc2c(c1)CCO2 [Cpd 226] ?
922

Form field: reported IC50 of COc1ccc(Cn2c(=O)nc(NCc3cccnc3N)n(Cc3cccc(OC(F)(F)F)c3)c2=O)cc1 [Cpd 98]
736

Quick one: IC50 of COc1ccc(Cn2c(=O)nc(NCc3cccnc3N)n(Cc3ccc(OC)nc3)c2=O)cc1 [Cpd 95] ?
84

Using the record for COc1ccc(Cn2c(NCc3cccnc3NCCC(C)C)nc(=O)n(Cc3ccc(OC)cc3)c2=O)cc1 [Cpd 67] , report its IC50.
4820

Consider the compound COc1ccc(Cn2c(C=Cc3ccncc3)cc(=O)n(Cc3ccc(OC)cc3)c2=O)cc1 [Cpd 184] and give its measured IC50.
2690

May I ask what IC50 has been recorded for Nc1ncccc1CNc1nc(=O)n(Cc2ccc3snnc3c2)c(=O)n1Cc1ccc2c(c1)CCO2 [Cpd 242] ?
251

###

- subject of test: UniProt:Q8TCW9
- test: PK1 functional assay: Ca2+ mobilization screening for PK1 antagonists on the FLIPR
- applied conditions: HEK 293 GPR73 cells; PK1 ligand preparation at its EC50; multiple values = multiple testing; read-out: Ca^2+ Mobilization IC50
For each entry below, report its log10 of IC50 value.
// units: nM (pre-log); metric: IC50; scale: log10

# get_value(readout='log10 of IC50', item= COc1ccc(Cn2c(=O)nc(NCc3cnc(C)cc3C)n(Cc3ccc(OC)c(F)c3)c2=O)cc1 [Cpd 204] )
1.83

What measured log10 of IC50 goes with COCCCCCn1c(=O)nc(NCc2c(C)cc(C)nc2N)n(Cc2ccc(OC)cc2)c1=O [Cpd 252] ?
3.13

Name the recorded log10 of IC50 for COc1ccc(Cn2c(NCc3cccc(N)n3)nc(=O)n(Cc3ccc(OC)cc3)c2=O)cc1 [Cpd 115] .
2.39

Record request: log10 of IC50 value, item Cc1cc(C)c(CNc2nc(=O)n(Cc3ccc(C#N)cc3)c(=O)n2Cc2ccc(OC(F)F)cc2)cn1 [Cpd 164]
3.30

Item Cc1cc(C)c(CNc2nc(=O)n(Cc3ccc(-n4cccn4)cc3)c(=O)n2Cc2ccc(OC(F)F)cc2)cn1 [Cpd 158] has what recorded log10 of IC50?
3.58

For the molecule shown here, CC(=O)Oc1ccc(Cn2c(=O)nc(NCc3cnc(C)cc3C)n(Cc3ccc(OC(F)F)cc3)c2=O)cc1 [Cpd 182] , give the reported log10 of IC50.
3.93

# lookup: log10 of IC50 of COc1ccc(Cn2c(=O)nc(NCc3cccnc3N)n(Cc3ccc4cc[nH]c4c3)c2=O)cc1 [Cpd 170]
1.51

Can you share its log10 of IC50? I mean this molecule: COc1ccc(Cn2c(=O)nc(NCc3cnc(C)cc3C)n(Cc3ccc(OC(F)F)cc3)c2=O)cc1 [Cpd 96]
2.44

Reported log10 of IC50, molecule CSc1ccc(Cn2c(=O)nc(NCc3cnc(C)cc3C)n(Cc3ccc(OC(F)F)cc3)c2=O)cc1 [Cpd 177] : ____
2.81

Recorded log10 of IC50 for COc1ccc(Cn2c(NCc3ccc(-c4ccc(F)cc4)nc3)nc(=O)n(Cc3ccc(OC)cc3)c2=O)cc1 [Cpd 25] , please?
3.44

Need log10 of IC50, item COc1ccc(Cn2c(NCc3cnc(C)cc3C)nc(=O)n(Cc3ccc(C(F)(F)F)cc3)c2=O)cc1 [Cpd 110]
3.96
